- assay.explanation: S. pombe growth modifiers, basal conditions – strain 972, OD600, 24 h, no modulator, primary screen (AID 1090);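 also: basal condition with compound alone and no growth modifier present; test concentration not given here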
- experimental.conditions: S. pombe 972 growth, higher = more signal, called active from +8 up or from −8 down
Quick reference: z-score of the listed items.

| smiles | z-score |
| --- | --- |
| [N-]=[N+]=Nc1ccccc1C[C@]1(C(=O)N2CCCCC2)COC(c2ccc(OCCCO)cc2)=N1 | -1.72 |
| CCOC(=O)C[C@H]1[C@H](OC(=O)c2ccc(C(=O)c3ccccc3)cc2)[C@@H](NC(=O)Cc2ccc(OC)cc2)c2cc(OCCCO)ccc2N1C(=O)c1ccc2ccccc2n1 | -0.22 |
| C[N+](C)(C)CCCCCCNC(=O)[C@H]1C[C@H]2C(=O)N[C@@H](Cc3ccccc3)C(=O)N2[C@H]1c1cccc(OCCO)c1 | 0.703 |
| COCCOC(=O)N1C(=O)[C@@]2(c3cc(C#Cc4ccc(OC)cc4)ccc31)[C@H](c1ccc(O)cc1)N1[C@H](c3ccccc3)[C@H](c3ccccc3)OC(=O)[C@H]1[C@@H]2C(=O)Nc1nc2ccccc2s1 | 0.0615 |
| O=C1O[C@H](c2ccccc2)[C@H](c2ccccc2)N2[C@H]1[C@@H](C(=O)NC[C@H](O)c1ccccc1)[C@]1(C(=O)Nc3ccccc31)[C@H]2c1ccc(O)cc1 | 0.817 |
| COC(=O)[C@@]1(Cc2ccc(OC)cc2)[C@H]2c3cc(C(=O)N4CCCC4)n(CCSCCO)c3C[C@H]2CN1C(=O)c1ccccc1 | 1.72 |

* * *

Quick reference: composite z-score of the listed items.
- Tested on: Human papillomavirus type 1a E7 protein (residues 1-88)
- assay.explanation: HPV1a E7 small-molecule binders, primary screen, biochemical, small-molecule microarray, residues 1-88, 635 nm (AID 1129)
- experimental.conditions: small-molecule microarray binding, fluorescence 635 nm; higher = more signal

| molecule | composite z-score |
| --- | --- |
| Cc1ccc(C2C3C(=O)CC4C(=O)N(c5ccccc5)C(=O)C4C3CN2S(=O)(=O)c2ccc(C)cc2)cc1 (centres undefined) | 1.24 |
| COC(=O)[C@]1(CCC(=O)OC(C)(C)C)N=C(c2ccc(OCCCO)cc2)O[C@@H]1c1ccccc1 | 0.527 |
| O=C1O[C@H](c2ccccc2)[C@H](c2ccccc2)N2[C@H]1[C@@H](C(=O)NC[C@H](O)c1ccccc1)[C@]1(C(=O)Nc3ccccc31)[C@H]2c1ccc(O)cc1 | 0.973 |
| COc1cc2c(cc1O)C(c1cccs1)N(Cc1cccc(OC(F)(F)F)c1)CC2 (centres undefined) | 0.733 |

* * *

Quick reference: z-score of the listed items.
- assay.explanation: growth of efflux-deficient E. coli DRC39 – strain DRC39, OD650, 48 h, E. coli filamentation inducers, primary screen (AID 1179);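 also: screen aims at cell division blockers that make cells filament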
- experimental.conditions: E. coli DRC39 delta-acrAB growth, higher = more signal, called active from +8 up or from −8 down
Activity calls are given as the source filed them.
experimental.endpoint: z-score

| molecule | observed |
| --- | --- |
| COCCCNC(=O)[C@@H]1c2ccccc2C(=O)N(Cc2ccccc2)[C@H]1c1ccc(CO)cc1 | 0.0879 (inactive) |
| C=CCNC(=O)[C@@H]1[C@H]2C(=O)O[C@H](c3ccccc3)[C@H](c3ccccc3)N2[C@H](c2ccc(OCCO)cc2)[C@@]12C(=O)N(C(=O)OCCOC)c1ccc(C#CCC(C(=O)OC)C(=O)OC)cc12 | -0.033 (inactive) |
| COc1cc(OC)c(C(O)C2C=CC3C(=O)NC(=O)C3N2Nc2ccccn2)cc1Br (stereo not given) | -0.512 (inactive) |
| CCCCCCc1nc(-c2ccc(-c3ccc(Cl)c(Cl)c3)o2)c(C)c2c1[Si](C(C)C)(C(C)C)OC2 | -0.616 (inactive) |
| CCCC=C(CCC)[C@@H](NS(=O)(=O)c1ccc(Cl)cc1)c1ccc(C(=O)OC)cc1 | -1.16 (inactive) |
| C[N+](C)(C)CCCC[C@@H]1NC(=O)[C@@H]2C[C@H](C(=O)NCCCCCCNC(=O)CS)[C@H](c3ccc(O)cc3)N2C1=O | -0.135 (inactive) |
| CCOC(=O)C[C@H]1[C@H](OC(=O)c2ccc(C(=O)c3ccccc3)cc2)[C@@H](NC(=O)c2ccccc2)c2cc(OCCCO)ccc2N1C(=O)c1ccccc1 | 0.293 (inactive) |
| CN1C(=O)C2C=CC(C(O)c3ccc(F)cc3)N(N(c3ccccc3)c3ccccc3)C2C1=O (stereo not given) | -0.26 (inactive) |
| COc1ccccc1CN1C(=O)c2ccccc2[C@@H](C(=O)NCc2ccccc2)[C@@H]1c1ccc(CO)cc1 | -0.36 (inactive) |
| COc1cc2c(cc1O)C(c1cccs1)N(Cc1cccc(OC(F)(F)F)c1)CC2 (stereo not given) | 1.14 (inactive) |
| O=C1C2C=CC(C(O)C=Cc3ccc([N+](=O)[O-])cc3)N(n3cnnc3)C2C(=O)N1Cc1ccccc1 (stereo not given) | -0.721 (inactive) |
| COc1ccc(C#Cc2ccc3c(c2)[C@]2(C(=O)N3)[C@H](c3ccc(O)cc3)N3[C@H](c4ccccc4)[C@H](c4ccccc4)OC(=O)[C@H]3[C@@H]2C(=O)N2CCc3cc(OC)c(OC)cc3C2)cc1 | 0.304 (inactive) |
| COCCOC(=O)N1C(=O)[C@@]2(c3cc(C#CC4=CCCCC4)ccc31)[C@H](C(N)=O)[C@H]1C(=O)O[C@H](c3ccccc3)[C@H](c3ccccc3)N1[C@@H]2c1ccc(O)cc1 | 1.03 (inactive) |
| [N-]=[N+]=NCc1ccccc1[C@H]1OC(c2ccc(OCCCO)cc2)=N[C@@]1(Cc1ccccc1)C(=O)N1CCCCC1 | 1.25 (inactive) |
| OCC1C=C(/C=C/c2ccccc2)CN1Cc1ccccc1Br (stereo not given) | 0.183 (inactive) |

* * *

Quick reference: composite z-score of the listed items.
- assay.explanation: probe aLAP1 signal on lysate-treated microarray – cell lysate, small-molecule microarray, COS7 lysate, primary screen (AID 1124);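 also: lysate comes from COS7 cells expressing LAP1 and is applied at 0.3 µg/mL; score merges spot fluorescence near 667 nm with signal-to-noise over triplicate slides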
- experimental.conditions: probe aLAP1, fluorescence, higher = more signal

| compound | composite z-score |
| --- | --- |
| COc1ccc(CCNC(=O)[C@@]2(c3ccc([N+](=O)[O-])cc3)CC(=O)N(CC34CC5CC(CC(C5)C3)C4)[C@@H]2c2ccc(CO)cc2I)cc1 | 0.283 |
| C=C[C@H](C)[C@@H](OC(=O)Nc1ccc(SC)cc1)c1ccc(O)c2ccccc12 | 0.188 |
| COCCOC(=O)N1C(=O)[C@@]2(c3ccccc31)[C@H](C(=O)N1CCc3cc(OC)c(OC)cc3C1)[C@H]1C(=O)O[C@H](c3ccccc3)[C@H](c3ccccc3)N1[C@@H]2c1ccc(O)cc1 | 0.808 |
| COCCOC(=O)N1C(=O)[C@@]2(c3cc(C#CC4(O)CCCCCC4)ccc31)[C@H](C(=O)Nc1nc3ccccc3s1)[C@H]1C(=O)O[C@H](c3ccccc3)[C@H](c3ccccc3)N1[C@@H]2c1ccccc1OCCO | 0.233 |
| COC(=O)[C@@]1(CCC(=O)OC(C)(C)C)N=C(c2ccc(OCCCO)cc2)O[C@H]1c1ccccc1 | 0.637 |
| O=C1C2C=CC(C(O)c3cc(C(F)(F)F)cc(C(F)(F)F)c3)N(Nc3ccccc3)C2C(=O)N1c1ccccc1 (stereo not given) | -0.233 |
| CC(C)NC(=O)[C@@H]1c2ccccc2C(=O)N(C(C)C)[C@H]1c1ccc(CO)cc1 | 0.338 |
| CC1CC/C=C\[C@H]2OC34C=CCN(Cc5ccccc5)C(=O)[C@H]3N(C(C)CO)C(=O)[C@@H]4C2C(=O)O1 (stereo not given in full) | -0.0231 |
| COCC(=C=CC[C@H](O)c1cccc(OCCO)c1)CCO | -0.0637 |
| CS(=O)(=O)CCOC(=O)C1=CC(CCCO)=CC(C2CC2)N(Cc2cc3c(cc2Br)OCO3)C=C1C(=O)OCCS(C)(=O)=O (stereo not given) | 0.495 |
| COCCCNC(=O)[C@@]1(Sc2ccc(C)cc2)CC(=O)N(Cc2ccccc2Cl)[C@@H]1c1ccc(CO)cc1 | 0.203 |
| C[N+](C)(C)CCCC[C@@H]1NC(=O)[C@@H]2C[C@H](C(=O)NCCCCCCNC(=O)CS)[C@H](c3ccc(O)cc3)N2C1=O | 0.596 |
| COc1ccc([C@H]2C[C@H]3C(I)=C[C@@H]2C(=O)[C@]32CO2)cc1 | -0.154 |
| Cc1ccc([C@H]2C(C(=O)O)=CCN2S(=O)(=O)c2ccc(C)cc2)cc1 | 0.584 |
| C=CCC(OC(C)=O)[C@@H]1[C@@H](N(Cc2cc3ccccc3o2)C(=O)Cc2ccc(OC)cc2)c2cc(OCCCO)ccc2N1C(=O)c1ccc2ccccc2c1 (stereo not given in full) | 0.16 |

* * *

Quick reference: composite z-score of the listed items.
- test.system: Torsin-1A-interacting protein 1 (Homo sapiens) (UniProt Q5JTV8)
- Sequence (Q5JTV8 whole entry, looked up): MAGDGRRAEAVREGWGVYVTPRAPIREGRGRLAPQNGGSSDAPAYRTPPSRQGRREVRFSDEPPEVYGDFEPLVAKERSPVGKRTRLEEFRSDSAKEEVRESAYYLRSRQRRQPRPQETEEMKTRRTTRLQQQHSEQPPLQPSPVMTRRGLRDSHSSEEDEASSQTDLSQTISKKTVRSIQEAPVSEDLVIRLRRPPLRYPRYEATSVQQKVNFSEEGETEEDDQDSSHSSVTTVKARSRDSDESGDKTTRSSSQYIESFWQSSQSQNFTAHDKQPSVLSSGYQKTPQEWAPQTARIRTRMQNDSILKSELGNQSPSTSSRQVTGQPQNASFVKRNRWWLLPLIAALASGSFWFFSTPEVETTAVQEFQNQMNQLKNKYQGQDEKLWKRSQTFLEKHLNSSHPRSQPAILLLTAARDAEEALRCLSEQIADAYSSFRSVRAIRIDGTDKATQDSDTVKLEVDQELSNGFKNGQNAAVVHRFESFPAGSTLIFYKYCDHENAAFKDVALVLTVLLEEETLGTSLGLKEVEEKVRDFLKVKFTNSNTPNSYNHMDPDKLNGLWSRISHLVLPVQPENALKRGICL
- assay.explanation: compound microarray binding of lysate hLAP1 – cell lysate, small-molecule microarray, COS7 lysate, 635/667 nm fluorescence, primary screen (AID 1116)
- experimental.conditions: 635 nm fluorescence, higher = more signal
experimental.endpoint: composite z-score

| compound | test.system | observed |
| --- | --- | --- |
| COCCOC(=O)N1C(=O)[C@@]2(c3cc(C#CC4=CCCCC4)ccc31)[C@H](c1ccc(OCCO)cc1)N1[C@H](c3ccccc3)[C@H](c3ccccc3)OC(=O)[C@H]1[C@@H]2C(=O)N1CCc2cc(OC)c(OC)cc2C1 | Torsin-1A-interacting protein 1 (Homo sapiens) (UniProt Q5JTV8) | 1.71 |
| CCOC(=O)[C@H]1C/C=C/C[C@H](C(=O)OCC)C(=O)O[C@H]2[C@@H](OC)O[C@H](CO)[C@@H](OC(=O)c3ccc(Br)cc3)[C@@H]2OC1=O | Torsin-1A-interacting protein 1 (Homo sapiens) (UniProt Q5JTV8) | 0.863 |
| O=C1C2C=CC(C(O)c3ccc(F)cc3)N(Nc3ccc([N+](=O)[O-])cc3)C2C(=O)N1c1ccccc1 (configuration not stated) | Torsin-1A-interacting protein 1 (Homo sapiens) (UniProt Q5JTV8) | 0.733 |
| O=C1OCCC/C=C\[C@H]2OC34C=CCN(c5ccc6ccccc6c5)C(=O)[C@H]3N(CCCCCO)C(=O)[C@@H]4C12 (some centres not stated) | Torsin-1A-interacting protein 1 (Homo sapiens) (UniProt Q5JTV8) | -1.28 |
| C#CCN1[C@@H](Cc2ccc(O)cc2)C(=O)O[C@H](Cc2ccccc2)[C@@H]1/C=C/C1CC1 | Torsin-1A-interacting protein 1 (Homo sapiens) (UniProt Q5JTV8) | -0.188 |
| COc1ccc([Si](C)(C)[C@H]2[C@H](CCn3cc([C@H](O)c4ccccc4)nn3)O[C@@]3(C(=O)N(C)c4ccccc43)[C@@H]2C)cc1 | Torsin-1A-interacting protein 1 (Homo sapiens) (UniProt Q5JTV8) | -0.773 |
| CCCCCCc1nc(-c2ccc(-c3ccc(Cl)c(Cl)c3)o2)c(C)c2c1[Si](C(C)C)(C(C)C)OC2 | Torsin-1A-interacting protein 1 (Homo sapiens) (UniProt Q5JTV8) | -0.196 |
